molecular target: T1, mucin domain-deleted Sudan GP (GPdMuc) (Sudan virus (SUDV), UniProt Q7T9D9 33-632); assay: BLI competition on Sudan GPdMuc (lower table); competitor 15H10
T1 construct: also called Sudan GPdMuc; GP(S)dMuc
endpoint-label: % inhibition of binding (%)
One number for each entry, in %.

Ask | Return reported % inhibition of binding; argument: antibody 365S (antibody, V domains shown) VH: EVQLVESGGGLVQPGGSLRLSCAASGLTFSAYEMNWVRQAPGKGLEWVSHITTSGSAIYYADSVKGRFTISRDNAKNSLHLQMNRLRADDTAVYFCARDSTIVQCSGTSCHVSTYSYMDVWGKGTTVTVSS VL: EIVLTQSPATLSLSPGERATLSCRASQSVTTYLAWYQHKPGQAPRLLIYDASKRATGIPARFSGSGSGTDFTLTISSLEPEDFAVYHCQQRSSWPPITFGQGTRLEIK
Reply | 9.47
